Test system: KM12 colon
Test: NCI-60 one-dose screen, 48 h (100 = growth as untreated, 0 = no growth, -100 = all killed)
Settings: 10 µM unless noted
About 83,000 compounds went through this panel and 20% of them were active in at least one assay; those are over-represented in the sample as a whole.
So basically, if growth comes in under 90% it's Satisfied, and if it's 90% or more it's Not satisfied.

In [3]: df
Out[3]:
                                   compound  class_label
0  Cn1c(=O)c2c(nc(Nc3cc(=O)[nH]c(=O)[nH]3)n2Cc2ccccc2)n(C)c1=O    Satisfied

Lab note: next compound to report on.
Enquiry: Identify whether the compound O=C1C=C(Nc2ccccc2)c2ncccc2C1=O records growth below 90%.
Return: Satisfied

###

# growth listing for each entry below
Tested on: DU-145 prostate
Assay: NCI-60 one-dose screen, 48 h (100 = growth as untreated, 0 = no growth, -100 = all killed)
Conditions: 10 µM unless noted
The panel holds about 83,000 compounds, 20% with a hit somewhere; the sample as a whole holds those more often.
Field: numeric (%). Do not append units.

For orientation, consider the following solved cases.
In [3]: df
Out[3]:
                              line_notation  quantity_measured  value
0  N#C/C(=N\Nc1ccc(Cl)cc1)C(=O)Nc1cc(-c2ccccc2)nn1-c1ccccc1             growth     35
1  CN1CCN(Cc2ccc(NC(=O)c3nc4ccc5[nH]ncc5c4c4c3CCCC4)cc2C(F)(F)F)CC1             growth  -73.1

Enquiry: Item CC(=O)OC[C@]12CCC(C)(C)C=C1[C@H]1CC[C@@H]3[C@@]4(C)CCCNC(C)(C)[C@@H]4CC[C@@]3(C)[C@]1(C)CC2 with DU-145 prostate - growth?
Return: 87.4

Enquiry: Item Cc1ccc(Nc2nc(-c3cc(O)c(C)c(C)c3O)cs2)cc1 with DU-145 prostate - growth?
Return: 97.3

Enquiry: Item Nn1c(-c2ccc(Cl)cc2)nc2c(-c3ccc(Cl)cc3)nc3ccc(Cl)cc3c2c1=O with DU-145 prostate - growth?
Return: -32.5

Enquiry: Item COc1ccc(NC(=O)Nc2ccccc2CNc2nc(Nc3ccc(OCCN4CCCC4)cc3)ncc2Cl)cc1 with DU-145 prostate - growth?
Return: 18

Enquiry: Item COc1ccc(/C=C2/C(=O)N=C3N2NC(c2ccccc2)=CN3c2ccccc2)cc1 with DU-145 prostate - growth?
Return: 114

Enquiry: Item C=C1C(=O)O[C@@H]2[C@H]3[C@H](COC(C)=O)[C@@H](OC(C)=O)C[C@H]3C(=C)[C@@H](O)C[C@@H]12 with DU-145 prostate - growth?
Return: 76.5

Enquiry: Item COc1cc(F)c(/C=C/c2cc(/C=C/c3cc(OC)c(OC)cc3F)n(-c3cc(F)cc(F)c3)n2)cc1OC with DU-145 prostate - growth?
Return: 43.1

###

System: MOLT-4 leukemia
Assay: NCI-60 one-dose screen, 48 h (100 = growth as untreated, 0 = no growth, -100 = all killed)
Conditions: 10 µM unless noted
This is part of a sample that, as a whole, favours compounds with a hit. Of some 83,000 tested, about 20% had one in any assay.
# growth listing for each entry below
Field: numeric (%). Do not append units.

For orientation, consider the following solved cases.
COMPOUND	ASSAY TARGET	growth [%]
OCc1cc(CN2CCCCC2)c(O)c2ncccc12	MOLT-4 leukemia	36
Clc1ccc2c(NCCN3CCN(c4ccnc(N5CCCC5)n4)CC3)ccnc2c1	MOLT-4 leukemia	47.2

Enquiry: Sample COc1nc2ccc(C)cc2cc1/C=[N+](\[O-])c1ccccc1 — what was its growth?
Return: 82.8

Enquiry: Sample O=C(/C=C/c1ccc([N+](=O)[O-])cc1)c1ccccc1 — what was its growth?
Return: 55.1

Enquiry: Sample C[N+]1=C(/C=C\C=C\c2ccccc2)C(C)(C)c2ccccc21 — what was its growth?
Return: 0.0688

Enquiry: Sample N#C/C(=C\c1ccccc1Cl)c1cc2ccccc2[nH]1 — what was its growth?
Return: 77.1

Enquiry: Sample c1cc(NCCCCN2CCOCC2)c2ccc3c(ccc4c(NCCN5CCOCC5)ccnc43)c2n1 — what was its growth?
Return: 43.2

Enquiry: Sample O=C1/C(=C/c2ccc(-c3ccccc3C(F)(F)F)o2)SC(=S)N1CCc1ccc(O)cc1 — what was its growth?
Return: 17.5

Enquiry: Sample C=C(CNCCO)[C@@H]1CC[C@]2(CO)CC[C@]3(C)[C@H](CC[C@@H]4[C@@]5(C)CCC(NCCc6ccc(O)cc6)C(C)(C)[C@@H]5CC[C@]43C)[C@@H]12 (stereo not given in full) — what was its growth?
Return: -30.3

Enquiry: Sample CC(=O)c1c(C)nc2ccccc2c1/C=C/c1cccc(C)c1 — what was its growth?
Return: 31

###

Test system: OVCAR-5 ovarian
Assay: NCI-60 one-dose screen, 48 h (100 = growth as untreated, 0 = no growth, -100 = all killed)
Settings: 10 µM unless noted
This is part of a sample that, as a whole, favours compounds with a hit. Of some 83,000 tested, about 20% had one in any assay.
So basically, if growth comes in under 80% it's 1.0, and if it's 80% or more it's 0.0.

Below are worked cases with known answers.
>>> df
                                   compound  class_label
0  COc1ccc(C(=O)N/N=C/c2ccc(O)cc2O)cc1Nc1ccnc(C(F)(F)F)c1          1.0
1   O=C1C(Nc2ccc(Cl)cc2)=C(I)C(=O)c2ncccc21          1.0
2            CCNC(=S)n1nc(SC)c(C(=O)OCC)c1N          0.0
3  Cc1c(O)c(O)cc2c3c(oc12)CC(c1ccc2c(c1)OCO2)CC3=O (stereo not given)          0.0

Lab note: next compound to report on.
Enquiry: Identify whether the compound CNC(=O)c1cc(Oc2ccc3nc(NC(=O)Nc4ccc(C(F)(F)F)cc4)sc3c2)ccn1 records growth below 80%.
Return: 0.0

###

Test system: SF-295 CNS
Experiment: NCI-60 one-dose screen, 48 h (100 = growth as untreated, 0 = no growth, -100 = all killed)
Details: 10 µM
This is part of a sample that, as a whole, favours compounds with a hit. Of some 83,000 tested, about 20% had one in any assay.
# growth listing for each entry below
Field: numeric (%). Do not append units.

In [3]: df
Out[3]:
                              line_notation  value
0       CC(=O)/C=C/c1ccc(OCc2ccc(Cl)cc2)cc1   99.1
1  O=C(/C=C/c1cccc(Oc2ccc(Cl)cc2)c1)c1ccccc1   94.9
2  CC(=O)/C=C/c1ccc(OCc2ccc(C(C)(C)C)cc2)cc1   69.6
3  COc1ccc(C(=O)/C=C/c2ccc(OCc3cccc(C(F)(F)F)c3)c(OC)c2)cc1OC   98.2
4  CCN(Cc1ccccc1)c1ccc(/C=C2\COc3ccccc3C2=O)cc1   94.4

Could you now consider this next compound?
Enquiry: Sample CC(=O)/C=C/c1ccc(N(CCO)Cc2ccc(C(C)(C)C)cc2)cc1 — what was its growth?
Return: 63.5

###

Test system: SNB-19 CNS
Assay: NCI-60 one-dose screen, 48 h
Details: 10 µM unless noted
Description: Growth inhibition of the SNB-19 human tumor cell line is measured as a screen for anti-cancer activity. Cells are grown in 96 well plates and exposed to the test compound for 48 hours. Compounds are tested at a single concentration, which is 10^-5 M for most compounds. The reported endpoint is percent growth (GI% or GIPRCNT), where numbers from 0 - 100% represent growth inhibition, and numbers from -100% - 0 represent cell death. For example, a value of 40 represents 60% growth inhibition. […]
This is part of a sample that, as a whole, favours compounds with a hit. Of some 83,000 tested, about 20% had one in any assay. Activity calls are given as the source filed them. Rule for the calls: active = growth percent below 10; inactive = the rest.
Hello, when you answer, please use one of the following outcomes: active, inactive

Below are worked cases with known answers.
In [3]: df
Out[3]:
                                   compound  class_label
0  O=C(CCCCCCCCC(=O)N/N=C\c1ccccc1O)N/N=C\c1ccccc1O     inactive
1  CC1=C2[C@@H](CC1)[C@]1(C)O[C@@](C3CC3)(C[C@H]1OC(=O)CO)[C@H]2OC(=O)/C=C/c1ccccc1     inactive
2  Cc1ccc(-c2nc3nc(-c4ccc(Cl)cc4)nc(N4CCCNCC4)c3o2)cc1       active
3  COc1ccc(CN2CCc3c(Cl)nc(N)nc3C2=O)c(OC)c1     inactive
4  COc1ccc(-c2nn3c(-c4cc(F)c(Cl)cc4Cl)nnc3s2)cc1     inactive
5  COc1ccc(-c2[nH]c3ccccc3c2-c2ccc(OC)cc2)cc1     inactive
6  Clc1ccc(Nc2nc(Nc3ccc(Cl)cc3)nc(Nc3ccc(-c4cc(-c5cccc(Cl)c5)on4)cc3)n2)cc1     inactive
7       O=C(Nc1ccc2ccccc2c1)c1cc2ccccc2cc1O     inactive

Enquiry: Can you look up the reported call for COc1cc(-c2nc3occn3c2-c2ccnc(NCCCNS(=O)(=O)c3ccc(O)cc3)n2)ccc1F for me?
Return: inactive

Enquiry: Can you look up the reported call for CC(C)(C)c1cc(C(C)(C)c2ccccc2)cc(Cc2cc(C(C)(C)c3ccccc3)cc(C(C)(C)C)c2O)c1O for me?
Return: inactive

Enquiry: Can you look up the reported call for CCN(CC)CCOc1ccccc1C for me?
Return: inactive

Enquiry: Can you look up the reported call for COc1ccc(/C=N/C2=C(C#N)C(c3ccccc3)c3c(ccc4ccccc34)O2)cc1 (centres undefined) for me?
Return: inactive

These entries and their values trace back to PubChem BioAssay (NCI).
